Overview of reported OD492 nm across a group of binders:
# TESTED_TARGET: T1, HCV Core1-169 recombinant antigen (hepatitis C virus (HCV-1), UniProt P26664 1-169)
# T1 sequence: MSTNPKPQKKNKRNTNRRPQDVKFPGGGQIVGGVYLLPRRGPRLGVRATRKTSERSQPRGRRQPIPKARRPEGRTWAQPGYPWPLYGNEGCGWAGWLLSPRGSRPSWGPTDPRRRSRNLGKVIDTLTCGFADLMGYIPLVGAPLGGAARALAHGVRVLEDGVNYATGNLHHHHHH
# ASSAY_NAME: sandwich EIA, 25 ng/ml core1-169; capture NC capture mAb
Write down the numeric answer in OD492 and omit the unit.

Look over these answered cases.
BINDER	OD492 nm / OD492
208B-395-334 monoclonal antibody (antibody, V domains shown) VH: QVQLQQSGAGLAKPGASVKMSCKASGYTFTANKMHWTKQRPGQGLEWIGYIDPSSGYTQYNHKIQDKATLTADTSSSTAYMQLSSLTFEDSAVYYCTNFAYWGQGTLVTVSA VL: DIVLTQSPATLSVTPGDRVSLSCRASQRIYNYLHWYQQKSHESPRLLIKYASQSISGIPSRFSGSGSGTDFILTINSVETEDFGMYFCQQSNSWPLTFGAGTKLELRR	0.2
HCV 208A-293 monoclonal antibody (antibody, V domains shown) VH: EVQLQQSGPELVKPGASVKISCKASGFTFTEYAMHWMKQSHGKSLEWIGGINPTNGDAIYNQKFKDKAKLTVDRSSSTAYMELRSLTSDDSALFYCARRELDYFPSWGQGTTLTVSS VL: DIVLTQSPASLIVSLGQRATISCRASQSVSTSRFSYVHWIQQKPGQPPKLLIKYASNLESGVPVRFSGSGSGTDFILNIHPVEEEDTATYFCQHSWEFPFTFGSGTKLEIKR	0.37

Below: the item to evaluate.
Provide measured OD492 nm value, entry: HCV 208A-557 monoclonal antibody (antibody, V domains shown) VH: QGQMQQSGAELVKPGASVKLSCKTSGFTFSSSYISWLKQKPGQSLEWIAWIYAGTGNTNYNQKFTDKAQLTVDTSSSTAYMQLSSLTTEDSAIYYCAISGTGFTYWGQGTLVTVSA VL: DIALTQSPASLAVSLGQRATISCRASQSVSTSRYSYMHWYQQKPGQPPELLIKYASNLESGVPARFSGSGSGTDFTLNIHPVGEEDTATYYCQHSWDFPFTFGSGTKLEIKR
0.18
